Cited source: patent US5214056A

A short record of IC50 observed with cathepsin B (Bos taurus) follows.
experimental-readout: IC50 (nM)

[[record]]
compound = "CC(C)CC(NC(=O)C1OC1C(=O)O)C(=O)NCCCCNC(=N)N (stereo not shown) [Example E-64, E-64, reference compound]"
readout_unit = "nM"
recorded_value = 35

[[record]]
compound = "CC(C)CCNC(=O)[C@H](CC(C)C)NC(=O)[C@H]1OS(=O)(=O)O[C@@H]1C(=O)O [Example 12]"
readout_unit = "nM"
recorded_value = 0.7

[[record]]
compound = "CC(C)CCNC(=O)[C@H](CC(C)C)NC(=O)[C@H]1OS(=O)(=O)O[C@@H]1C(=O)OCc1ccccc1 [Example 11]"
readout_unit = "nM"
recorded_value = 9

[[record]]
compound = "CCOC(=O)[C@H]1OS(=O)(=O)O[C@@H]1C(=O)N[C@@H](CC(C)C)C(=O)NCc1ccccc1 [Example 16]"
readout_unit = "nM"
recorded_value = 3

